Biological target: CaV1.2^T1056Y (Homo sapiens, UniProt Q13936, T1056Y)
Construct: superfolder GFP (sfGFP) (C); Twin-Strep (C)
Sequence (Q13936 whole entry T1056Y): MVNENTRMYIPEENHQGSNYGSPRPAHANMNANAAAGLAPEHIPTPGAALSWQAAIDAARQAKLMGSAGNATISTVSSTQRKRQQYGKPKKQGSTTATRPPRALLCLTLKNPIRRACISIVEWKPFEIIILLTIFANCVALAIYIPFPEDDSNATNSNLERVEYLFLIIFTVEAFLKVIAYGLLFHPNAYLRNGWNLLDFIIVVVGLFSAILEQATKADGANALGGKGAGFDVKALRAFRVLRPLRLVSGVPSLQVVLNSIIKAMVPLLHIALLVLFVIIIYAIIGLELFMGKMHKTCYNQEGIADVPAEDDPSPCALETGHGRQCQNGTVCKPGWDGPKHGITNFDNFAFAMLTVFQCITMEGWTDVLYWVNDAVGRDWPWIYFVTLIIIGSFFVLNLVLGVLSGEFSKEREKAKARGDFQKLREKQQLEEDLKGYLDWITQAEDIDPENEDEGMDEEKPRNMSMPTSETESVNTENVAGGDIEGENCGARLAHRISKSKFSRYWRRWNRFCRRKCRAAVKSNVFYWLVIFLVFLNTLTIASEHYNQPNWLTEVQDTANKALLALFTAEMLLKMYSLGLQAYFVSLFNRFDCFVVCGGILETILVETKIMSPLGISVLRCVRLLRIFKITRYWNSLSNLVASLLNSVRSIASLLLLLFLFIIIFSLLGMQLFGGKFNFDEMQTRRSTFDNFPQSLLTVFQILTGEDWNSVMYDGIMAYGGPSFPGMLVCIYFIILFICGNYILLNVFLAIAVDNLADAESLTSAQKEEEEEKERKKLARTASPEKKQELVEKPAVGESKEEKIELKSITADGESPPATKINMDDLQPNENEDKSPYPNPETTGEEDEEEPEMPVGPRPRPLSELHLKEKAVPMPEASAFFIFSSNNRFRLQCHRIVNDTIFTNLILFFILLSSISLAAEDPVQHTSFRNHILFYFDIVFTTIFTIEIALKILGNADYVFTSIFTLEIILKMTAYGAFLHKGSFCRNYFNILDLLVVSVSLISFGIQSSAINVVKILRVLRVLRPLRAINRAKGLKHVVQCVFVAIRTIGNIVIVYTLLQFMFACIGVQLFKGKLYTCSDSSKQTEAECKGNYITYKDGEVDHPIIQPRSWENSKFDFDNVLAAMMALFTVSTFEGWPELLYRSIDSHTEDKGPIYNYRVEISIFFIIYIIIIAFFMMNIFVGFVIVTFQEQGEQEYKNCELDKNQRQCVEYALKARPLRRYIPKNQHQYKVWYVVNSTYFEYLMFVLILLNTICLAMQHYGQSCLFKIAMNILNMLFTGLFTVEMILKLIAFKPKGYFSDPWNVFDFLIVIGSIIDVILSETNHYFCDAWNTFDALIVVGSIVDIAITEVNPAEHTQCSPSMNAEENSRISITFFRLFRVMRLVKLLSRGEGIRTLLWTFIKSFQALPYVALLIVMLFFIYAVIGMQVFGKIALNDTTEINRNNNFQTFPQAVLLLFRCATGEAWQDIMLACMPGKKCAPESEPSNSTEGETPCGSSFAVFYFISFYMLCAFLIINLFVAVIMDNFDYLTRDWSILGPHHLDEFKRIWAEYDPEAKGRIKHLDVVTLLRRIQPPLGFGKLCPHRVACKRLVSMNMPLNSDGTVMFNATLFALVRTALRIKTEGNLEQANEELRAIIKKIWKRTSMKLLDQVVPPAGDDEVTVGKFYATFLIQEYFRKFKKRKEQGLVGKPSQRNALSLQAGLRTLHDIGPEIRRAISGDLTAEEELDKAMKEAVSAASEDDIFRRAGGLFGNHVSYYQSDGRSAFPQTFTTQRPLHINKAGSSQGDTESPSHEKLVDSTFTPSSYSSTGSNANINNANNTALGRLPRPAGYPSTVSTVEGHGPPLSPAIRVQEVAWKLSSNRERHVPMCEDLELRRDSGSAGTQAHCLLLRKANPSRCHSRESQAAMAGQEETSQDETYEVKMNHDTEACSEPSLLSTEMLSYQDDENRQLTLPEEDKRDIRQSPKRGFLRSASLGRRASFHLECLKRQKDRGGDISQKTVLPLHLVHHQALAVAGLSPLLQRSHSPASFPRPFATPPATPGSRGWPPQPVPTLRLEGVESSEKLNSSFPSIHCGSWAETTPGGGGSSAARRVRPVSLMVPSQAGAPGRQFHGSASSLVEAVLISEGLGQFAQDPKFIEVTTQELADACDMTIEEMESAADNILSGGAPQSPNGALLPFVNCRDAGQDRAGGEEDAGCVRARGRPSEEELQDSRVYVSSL
Sequence (P54289 25-946 partner limits assumed): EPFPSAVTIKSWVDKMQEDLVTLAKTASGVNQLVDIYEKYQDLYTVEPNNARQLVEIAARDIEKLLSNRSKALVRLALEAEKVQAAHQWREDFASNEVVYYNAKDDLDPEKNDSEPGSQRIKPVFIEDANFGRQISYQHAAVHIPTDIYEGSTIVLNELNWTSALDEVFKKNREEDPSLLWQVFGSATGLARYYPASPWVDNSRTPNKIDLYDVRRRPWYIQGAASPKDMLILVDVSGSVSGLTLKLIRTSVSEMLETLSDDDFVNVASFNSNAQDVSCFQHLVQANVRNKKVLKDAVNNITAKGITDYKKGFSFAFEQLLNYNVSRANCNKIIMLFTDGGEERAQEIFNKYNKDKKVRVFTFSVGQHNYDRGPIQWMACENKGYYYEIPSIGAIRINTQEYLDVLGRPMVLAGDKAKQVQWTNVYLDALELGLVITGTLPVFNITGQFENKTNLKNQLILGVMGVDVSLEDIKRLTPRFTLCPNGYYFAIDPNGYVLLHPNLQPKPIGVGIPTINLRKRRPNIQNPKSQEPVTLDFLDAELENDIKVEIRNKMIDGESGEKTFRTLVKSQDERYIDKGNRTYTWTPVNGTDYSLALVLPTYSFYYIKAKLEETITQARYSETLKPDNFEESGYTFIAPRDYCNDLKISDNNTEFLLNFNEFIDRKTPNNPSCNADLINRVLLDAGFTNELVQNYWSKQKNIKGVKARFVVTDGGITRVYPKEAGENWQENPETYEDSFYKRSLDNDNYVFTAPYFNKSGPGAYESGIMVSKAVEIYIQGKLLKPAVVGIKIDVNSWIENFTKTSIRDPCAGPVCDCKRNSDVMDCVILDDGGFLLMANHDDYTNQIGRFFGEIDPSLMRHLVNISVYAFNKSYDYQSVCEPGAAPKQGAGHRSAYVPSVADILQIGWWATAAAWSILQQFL
Sequence (P54289 947-1103 partner limits assumed): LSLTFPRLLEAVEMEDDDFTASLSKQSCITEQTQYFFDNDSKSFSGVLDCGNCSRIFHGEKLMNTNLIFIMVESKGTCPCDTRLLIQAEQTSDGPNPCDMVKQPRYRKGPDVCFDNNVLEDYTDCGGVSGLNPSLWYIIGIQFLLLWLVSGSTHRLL
Sequence (Q08289 1-606 isoform Q08289-3 partner): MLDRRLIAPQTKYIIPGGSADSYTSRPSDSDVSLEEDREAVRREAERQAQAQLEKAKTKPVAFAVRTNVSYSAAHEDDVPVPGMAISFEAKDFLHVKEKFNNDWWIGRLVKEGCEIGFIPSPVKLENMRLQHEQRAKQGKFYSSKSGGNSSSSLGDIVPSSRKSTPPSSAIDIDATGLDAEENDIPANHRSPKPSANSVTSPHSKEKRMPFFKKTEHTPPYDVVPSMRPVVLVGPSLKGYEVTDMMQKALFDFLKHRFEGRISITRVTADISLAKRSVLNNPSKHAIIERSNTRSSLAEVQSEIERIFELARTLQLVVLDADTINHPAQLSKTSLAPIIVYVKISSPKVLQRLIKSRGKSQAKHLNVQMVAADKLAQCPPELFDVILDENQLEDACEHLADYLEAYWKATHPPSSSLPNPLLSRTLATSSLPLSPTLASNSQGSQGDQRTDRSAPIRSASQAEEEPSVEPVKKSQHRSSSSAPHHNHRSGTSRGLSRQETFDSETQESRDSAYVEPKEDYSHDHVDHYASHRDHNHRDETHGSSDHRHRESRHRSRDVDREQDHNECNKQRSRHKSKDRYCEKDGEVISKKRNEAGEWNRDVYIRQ
Assay: whole-cell patch clamp inhibition curves in HEK293T cells, T1056Y mutant
Details: held at -100 mV, depolarized at +10 mV every 1 min; n = 4
measurement type: IC50

The reported value for COC(=O)C1=C(C)NC(C)=C(C(=O)OC2CCCN(Cc3ccccc3)C2)C1c1cccc([N+](=O)[O-])c1 (stereo not shown) in terms of IC50 is > 100 µM

====

Biological target: CaV1.2^Q1060F (Homo sapiens, UniProt Q13936, Q1060F)
Construct: superfolder GFP (sfGFP) (C); Twin-Strep (C); expressed in transfected cells; host or cells: HEK293T
Experiment: whole-cell patch clamp inhibition curves in HEK293T cells, Q1060F mutant
Format: cell-based
Settings: IC50 of benidipine on CaV1.2^Q1060F, held at -100 mV, depolarized at +10 mV every 1 min; n = 4
measurement type: pIC50
Note on units: pIC50 is unitless, being -log10 of a concentration expressed in mol/L.

Tested on CaV1.2^Q1060F (Homo sapiens, UniProt Q13936, Q1060F), the item COC(=O)C1=C(C)NC(C)=C(C(=O)OC2CCCN(Cc3ccccc3)C2)C1c1cccc([N+](=O)[O-])c1 (stereo not shown) [benidipine] showed pIC50 equal to 4.93
